experiment.description: nonspecific calcium rise without TRPC4 – cell-based, HEK293 mu-opioid receptor line, counter-screen for TRPC4 activator project, confirmation (AID 449723);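 also: counter screen cells carry the mu-opioid receptor alone and lack TRPC4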
measurement.context: HEK293 mu-opioid cells, Fluo-4 calcium fluorescence, at 10 µM
The source made the active and inactive calls.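 The calls were made as follows: active = hit in primary screen, with calcium signal over 5 SD above buffer well mean in both duplicates; inactive = the rest.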
quantity.kind: activation

Would you please look over these solved cases?
{"molecule": "CN1CCN(c2ccc(Cl)cc2NC(=O)CC2OC(=O)c3ccccc32)CC1 (stereo not drawn)", "activation": "inactive"}
{"molecule": "CC(C)c1ccc(C(C)NCCS(=O)(=O)c2ccc(Br)cc2)cc1 (stereo not drawn)", "activation": "inactive"}
{"molecule": "O=C(O)c1ccc(NC(=S)NC(=O)c2ccc(-c3ccccc3)cc2)cc1", "activation": "inactive"}
{"molecule": "CCn1c(O)c(N=NC(=O)c2cccc(S(=O)(=O)N3CCCCC3)c2)c2ccccc21", "activation": "inactive"}

Measured activation, CC1CCc2c(sc(/N=C/N(C)C)c2C#N)C1 (stereo not drawn) : inactive

Measured activation, `CCCc1nc(SC2CCCC2)c2c(=O)n(C)c(=O)n(C)c2n1` : inactive

Measured activation, Cc1sc(NC(=O)C2CCCCC2C(=O)O)c(C(N)=O)c1-c1ccc(C(C)(C)C)cc1 (stereo not drawn) : inactive

Measured activation, `CC1CCN(CCOCCOc2ccccc2-c2ccccc2)CC1` : inactive
